Test System: NR2B (Rattus norvegicus (Rat), UniProt Q00960)
Sequence (Q00960 27-1482, other chains not shown): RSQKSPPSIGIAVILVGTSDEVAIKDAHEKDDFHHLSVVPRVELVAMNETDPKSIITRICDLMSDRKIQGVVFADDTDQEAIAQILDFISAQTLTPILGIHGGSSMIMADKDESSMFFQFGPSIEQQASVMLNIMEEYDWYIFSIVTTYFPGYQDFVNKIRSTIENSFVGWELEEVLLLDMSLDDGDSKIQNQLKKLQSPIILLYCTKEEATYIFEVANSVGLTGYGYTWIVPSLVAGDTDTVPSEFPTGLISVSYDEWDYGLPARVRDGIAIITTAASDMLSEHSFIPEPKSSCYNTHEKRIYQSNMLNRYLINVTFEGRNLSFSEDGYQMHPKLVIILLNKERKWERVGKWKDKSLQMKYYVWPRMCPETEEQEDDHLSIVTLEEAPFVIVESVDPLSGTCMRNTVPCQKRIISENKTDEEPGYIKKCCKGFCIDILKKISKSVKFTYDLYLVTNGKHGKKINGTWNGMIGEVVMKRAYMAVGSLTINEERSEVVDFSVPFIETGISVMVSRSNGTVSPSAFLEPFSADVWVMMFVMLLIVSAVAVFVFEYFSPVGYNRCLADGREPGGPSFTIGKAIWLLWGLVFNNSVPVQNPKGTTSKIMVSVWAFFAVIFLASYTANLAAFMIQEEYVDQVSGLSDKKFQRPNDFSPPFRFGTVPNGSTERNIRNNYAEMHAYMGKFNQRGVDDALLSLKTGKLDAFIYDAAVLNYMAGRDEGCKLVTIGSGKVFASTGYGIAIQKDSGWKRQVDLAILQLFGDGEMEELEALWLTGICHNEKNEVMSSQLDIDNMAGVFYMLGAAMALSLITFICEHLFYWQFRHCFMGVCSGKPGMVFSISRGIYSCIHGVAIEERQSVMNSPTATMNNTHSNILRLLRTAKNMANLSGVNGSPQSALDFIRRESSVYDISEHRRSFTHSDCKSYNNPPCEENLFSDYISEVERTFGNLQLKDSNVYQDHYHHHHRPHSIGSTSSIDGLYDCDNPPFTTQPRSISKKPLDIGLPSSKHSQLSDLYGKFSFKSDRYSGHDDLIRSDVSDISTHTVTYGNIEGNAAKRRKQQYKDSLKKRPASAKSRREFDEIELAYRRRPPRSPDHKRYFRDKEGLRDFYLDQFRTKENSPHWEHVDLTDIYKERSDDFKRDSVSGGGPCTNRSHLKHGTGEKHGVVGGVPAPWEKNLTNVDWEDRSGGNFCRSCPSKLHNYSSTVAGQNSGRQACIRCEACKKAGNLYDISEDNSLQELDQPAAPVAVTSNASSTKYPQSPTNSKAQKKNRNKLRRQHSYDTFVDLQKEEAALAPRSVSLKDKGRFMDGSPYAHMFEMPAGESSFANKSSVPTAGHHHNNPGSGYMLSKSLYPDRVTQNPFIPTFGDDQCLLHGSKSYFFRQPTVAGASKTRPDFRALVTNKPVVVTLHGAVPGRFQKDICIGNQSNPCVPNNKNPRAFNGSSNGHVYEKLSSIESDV
Experiment Notes: NR2B rat cortical neuron calcium influx assay
Condition Parameters: rat cortical neurons, glutamate and glycine stimulated calcium influx
Measure: IC50 (nM)

1: O=C1CCc2cc([C@H](O)CN3C[C@@H]4C[C@@H](Oc5cccc(F)c5F)C[C@]4(O)C3)ccc2N1 (single isomer, unassigned) [Example 24D]
2: O=c1[nH]c2ccc([C@H](O)CN3C[C@H]4C[C@H](Oc5ccccc5F)C[C@@]4(O)C3)cc2o1 (single isomer, unassigned) [Example 40B]
Incoming: Lab note: check whether 1 or 2 shows the higher recorded IC50. Kindly give the label for the entry you pick.
Outgoing: 2
(2: 28 nM, 1: 0.056 nM)

Measured values drawn from patent US20240208953A1 for this set.
